# testedTarget: T1, Human CD33 full length, expressed on HEK293F cells (human, UniProt P20138 18-364)
# T1 construct: HEK293F cells transduced with lentivirus containing full length human CD33; also called huCD33
# T1 sequence (P20138 18-364 limits assumed): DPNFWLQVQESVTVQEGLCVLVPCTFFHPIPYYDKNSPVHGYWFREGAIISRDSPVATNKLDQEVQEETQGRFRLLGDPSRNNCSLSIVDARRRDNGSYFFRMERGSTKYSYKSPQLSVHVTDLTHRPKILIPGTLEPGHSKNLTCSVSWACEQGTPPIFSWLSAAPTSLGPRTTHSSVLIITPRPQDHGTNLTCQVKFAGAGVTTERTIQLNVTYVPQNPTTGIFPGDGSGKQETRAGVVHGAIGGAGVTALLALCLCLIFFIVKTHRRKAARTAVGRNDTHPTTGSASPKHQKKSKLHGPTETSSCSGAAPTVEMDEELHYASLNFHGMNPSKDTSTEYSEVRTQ
# assayRemarks: flow cytometry, HEK293F cells expressing human CD33
# Experimental: OMNIRat antibodies identified via immunization, v-region cloned and subsequently expressed and purified were characterized further for binding to CD33 expressing cells and binding to recombinant antigens. The purified antibodies were assessed for binding to stably transfected HEK293F cells expressing human CD33 or cyno CD33 (generation described above) along with the parental HEK293F as negative control. […] Antibody binding was assessed by the mean fluorescence intensity in the AF647 channel.
Catalogue of binders with associated MFI at 6 nM mAb
The reply should be a number in MFI, with the unit left off.

Reference set (2 entries):
C33B80 (antibody, IgG1, V domains shown, huIgG1 F405L; also called C33F85; C33H76/C33L39) VH: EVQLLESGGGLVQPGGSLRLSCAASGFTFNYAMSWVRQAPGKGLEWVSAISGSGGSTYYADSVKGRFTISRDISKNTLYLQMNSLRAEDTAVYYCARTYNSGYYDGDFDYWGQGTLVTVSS VL: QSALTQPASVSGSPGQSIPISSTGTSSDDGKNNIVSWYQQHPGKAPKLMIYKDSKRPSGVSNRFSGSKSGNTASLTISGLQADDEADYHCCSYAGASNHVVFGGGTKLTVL: 410
C33B79 (antibody, IgG1, V domains shown, huIgG1 F405L; also called C33F84; C33H74/C33L38) VH: QVQLVESGGGVVQPGRSLRLSCAASRFTFSSYGMHWVRQAPGKGLEWVAVISYDGSNKYYADSVKGRFTISRDNSKNTLYLQMNSLRAEDTAVHYCAKDFRSFDWLPPDSASYHGMDVWGQGTTVTVSS VL: SYELTQPPSVSVPPGQTASITCSGDKLGDKYACWYQQKPGQSPVLVIYQDNKRPSGIPERFSGSNSGNTATLTISGTQAMDEADYYCQAWGRNTVVFGGGTKLTVL: 41900

Lab note: measured MFI at 6 nM mAb of C33B124 (antibody, IgG1, V domains shown, huIgG1 F405L; also called C33F129; C33H73/C33L32) VH: EVQLLESGGGLVQPGGSLRLSCAASRFTFSSYAMTWVRQAPGKGLEWVSTINISGGSTYYADSVKGRFTISRDNSKNTLYLQMNSLRAEDTAVYYCTKGGYSSGPFDYWGQGTLVSVSS VL: SYELTQPPSVSVSPGQTASITCSGDKLGDKYVRWYQQKTGQSPVLVMYQDSKRPSGIRERFYGSNSGNTATPTISGTQAVDEAEYYCQAWDSSTGVVFGGGTKLTVL was 126
